assay: Kinetic aqueous solubility of the compound in PBS buffer […] at pH 7.4 after 2 hrs by UV-Visible spectrophotometric analysis; assay type: physicochemical; settings: read-out: Kinetic_solubility
Readings of solubility kinetic at 2 h for the listed compounds
Just the number please, in µM, no unit attached.

Sample answers from the record:
compound	recorded measurement
COc1ccc(CC2CCOC3(CCN(Cc4ccc(COc5ccc(CCC(=O)O)cc5)cc4)CC3)C2)cc1.Cl (centres undefined)	42
Cl.O=C(O)CCc1ccc(OCc2ccc(CN3CCC4(CC3)CC(Cc3ccccc3)CCO4)cc2)cc1 (centres undefined)	151
Cl.O=C(O)CCc1ccc(OCc2ccc(CN3CCC4(CC3)CC(Cc3ccc(F)cc3)CCO4)cc2)cc1 (centres undefined)	143

// next item, solubility kinetic at 2 h requested
(Q) Item Cc1ccc(CC2CCOC3(CCN(Cc4ccc(COc5ccc(CCC(=O)O)cc5)cc4)CC3)C2)cc1.Cl (centres undefined) has what recorded solubility kinetic at 2 h?
(A) 69

====

assay: Protein binding in human plasma at 1 uM after 5 hrs by HPLC-MS/MS analysis; type: ADME, cell-free; conditions: read-out: PPB (converted)
Readings of fraction unbound at 5 h, 1 µM for the listed compounds

Sample answers from the record:
compound	fraction unbound at 5 h, 1 µM
Cl.O=C(O)CCc1ccc(OCc2ccc(CN3CCC4(CC3)CC(Cc3ccccc3)CCO4)cc2)cc1 (centres undefined)	0.012
Cc1ccc(CC2CCOC3(CCN(Cc4ccc(COc5ccc(CCC(=O)O)cc5)cc4)CC3)C2)cc1.Cl (centres undefined)	0.002
COc1ccc(CC2CCOC3(CCN(Cc4ccc(COc5ccc(CCC(=O)O)cc5)cc4)CC3)C2)cc1.Cl (centres undefined)	0.007

(Q) Item Cl.O=C(O)CCc1ccc(OCc2ccc(CN3CCC4(CC3)CC(Cc3ccc(F)cc3)CCO4)cc2)cc1 (centres undefined) has what recorded fraction unbound at 5 h, 1 µM?
(A) 0.017

====

target: Free fatty acid receptor 1 (Homo sapiens); assay: Agonist activity at human FFA1 receptor expressed in CHO cells assessed as induction of Ca2+ flux by fluo-8 dye based FLIPR assay relative to GW9508; type: functional, cell-based
Sequence (O14842 whole entry): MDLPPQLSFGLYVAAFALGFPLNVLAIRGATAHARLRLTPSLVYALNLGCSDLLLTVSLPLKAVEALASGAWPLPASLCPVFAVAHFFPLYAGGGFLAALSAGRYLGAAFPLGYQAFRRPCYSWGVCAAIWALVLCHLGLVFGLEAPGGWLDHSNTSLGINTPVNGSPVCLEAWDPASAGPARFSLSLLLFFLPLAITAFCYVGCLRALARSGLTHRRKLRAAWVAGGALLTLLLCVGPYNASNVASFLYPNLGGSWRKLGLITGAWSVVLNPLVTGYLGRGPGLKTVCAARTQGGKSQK
Please mark Met if the recorded Emax is equal to or greater than 90%, and Not met if it falls below.

molecule	assigned class
O=C(O)CCc1ccc(OCc2ccc(CN3CCC4(CC3)CC(OCc3cccc(F)c3)CCO4)cc2)cc1 (stereo not given)	Met
O=C(O)CCc1ccc(OCc2ccc(CN3CCC4(CC3)CC(Cc3nc(C5CC5)no3)CCO4)cc2)cc1 (stereo not given)	Not met
O=C(O)CCc1ccc(OCc2ccc(CN3CCC4(CC3)CC(Cc3ccccc3F)CCO4)cc2)cc1 (stereo not given)	Met
Cc1ccc(CC2CCOC3(CCN(Cc4ccc(COc5ccc(CCC(=O)O)cc5)cc4)CC3)C2)cc1.Cl (stereo not given)	Not met

(Q) In plain terms: is recorded Emax at least 90% for Cl.O=C(O)CCc1ccc(OCc2ccc(CN3CCC4(CC3)CC(Cc3ccccc3)CCO4)cc2)cc1 (stereo not given) ?
(A) Met

(Q) Now try O=C(O)CCc1ccc(OCc2ccc(CN3CCC4(CC3)CC(Cc3ccc(C(F)(F)F)cc3)CCO4)cc2)cc1 (stereo not given) .
(A) Not met

(Q) Now try O=C(O)CCc1ccc(OCc2ccc(CN3CCC4(CC3)CC(OCc3ccccc3)CCO4)cc2)cc1 (stereo not given) .
(A) Met

(Q) Now try O=C(O)CCc1ccc(OCc2ccc(CN3CCC4(CC3)CC(OCc3ccc(F)cc3)CCO4)cc2)cc1 (stereo not given) .
(A) Not met

(Q) Now try COc1ccc(CC2CCOC3(CCN(Cc4ccc(COc5ccc(CCC(=O)O)cc5)cc4)CC3)C2)cc1.Cl (stereo not given) .
(A) Met
